Reported VIP by item:
# target under test: MARV NP (amino acids 19–370) (Lake Victoria marburgvirus)
# Sequence (P27588 19-370 limits assumed): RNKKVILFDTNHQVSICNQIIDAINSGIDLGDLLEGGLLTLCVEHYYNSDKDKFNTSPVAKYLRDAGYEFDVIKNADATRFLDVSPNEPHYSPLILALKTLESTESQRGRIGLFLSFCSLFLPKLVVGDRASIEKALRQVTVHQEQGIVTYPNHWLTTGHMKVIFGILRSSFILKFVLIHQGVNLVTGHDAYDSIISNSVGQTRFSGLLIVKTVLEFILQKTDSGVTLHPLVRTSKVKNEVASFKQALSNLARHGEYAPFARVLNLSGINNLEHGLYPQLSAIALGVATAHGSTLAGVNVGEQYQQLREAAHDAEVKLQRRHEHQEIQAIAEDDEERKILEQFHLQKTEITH
# Assay type: binding, Marburg virus
Respond with the number and no other words.

# count of solved cases: 3
input smiles: COc1ccc(-c2coc3cc(O[C@@H]4O[C@H](CO)[C@@H](O)[C@H](O)[C@H]4O)ccc3c2=O)cc1
VIP: 1.28

input smiles: O=C(/C=C/c1ccc(O[C@@H]2O[C@H](CO)[C@@H](O)[C@H](O)[C@H]2O)cc1)c1ccc(O)cc1O
VIP: 2.12

input smiles: C=CC(C)(C)c1cc(/C=C/C(=O)c2ccc(O)cc2)c(OC)cc1O
VIP: 2.03

Now, please, on to the next compound.
Recorded result, O=C(/C=C/c1ccc(O)cc1)c1ccc(O[C@@H]2O[C@H](CO)[C@@H](O)[C@H](O)[C@H]2O)cc1O , VIP: 1.31
